- Protocol: Clearance in Sprague-Dawley rat at 10 mg/kg, iv by LC-MS analysis
- Type: ADME, organism-based
- Parameters: dose 10 mg/kg, route intravenous
- Run Parameters: in vivo
Endpoint Label: clearance (mL/min/kg)
Kindly provide the numeric value in mL/min/kg only, without the unit symbol.

For orientation, consider the following solved cases.
N=C(N)NCCC[C@H](N)C(=O)O.N=C(N)NCCC[C@H](N)C(=O)O.O=C1OC(COP(=O)(O)O)CN1c1ccc(-c2ccc3c(c2)OC[C@H]2[C@H](CO)OC(=O)N32)cn1 (some centres undefined): 46.3
O=C1OC(COP(=O)([O-])[O-])CN1c1ccc(-c2ccc3c(c2)OC[C@H]2[C@H](CO)OC(=O)N32)cn1.[Na+].[Na+] (some centres undefined): 33.8
CN1C[C@@H](c2ccc(-c3ccc4c(c3)OC[C@H]3[C@H](COP(=O)([O-])[O-])OC(=O)N43)cn2)OC1=O.[Na+].[Na+]: 40.3

Attention now shifts to the item below.
Would you mind telling me what clearance value was observed for "CN1C[C@@H](c2ccc(-c3ccc4c(c3)OC[C@H]3[C@H](COP(=O)(O)O)OC(=O)N43)cn2)OC1=O.N=C(N)NCCC[C@H](N)C(=O)O.N=C(N)NCCC[C@H](N)C(=O)O" ?
56.2

* * *

- Protocol: Elimination half life in Sprague-Dawley rat at 5.6 mg/kg, iv by LC-MS analysis
- Format: ADME, organism-based
- Set-up: dose 5.6 mg/kg, route intravenous
- Run Parameters: in vivo, read-out: beta t1/2 (converted)
Endpoint Label: half-life (h)
Number in h, nothing else.

Which half-life is listed for O=C1OC(CO)CN1c1ccc(-c2ccc3c(c2)OC[C@H]2[C@H](CO)OC(=O)N32)cn1 (stereo partly specified) ?
1.08

* * *

- Test system: Staphylococcus epidermidis
- Protocol: Antibacterial activity against methicillin-sensitive Staphylococcus epidermidis after 16 hrs by NCCLS agar dilution method
- Assay type: functional
Labelling: MIC reported below 1 µg/mL becomes yes (1); at or above becomes no (0).

CN1CCN(c2ccc(-c3ccc4c(c3)OC[C@H]3[C@H](CO)OC(=O)N43)cn2)C(=O)C1: no (0)
CC(=O)c1ccc(-c2ccc3c(c2)OC[C@H]2[C@H](CO)OC(=O)N32)cn1: no (0)

Decide: MIC of "Cc1cc(N2CCOC2=O)ncc1-c1ccc2c(c1)OC[C@H]1[C@H](CO)OC(=O)N21" strictly below 1 µg/mL?
yes (1)

Is 1 µg/mL strictly greater than the molecule's reported MIC? molecule: "C[C@@H](O)C(=O)c1ccc(-c2ccc3c(c2)OC[C@H]2[C@H](CO)OC(=O)N32)cn1"
yes (1)

Criterion: MIC strictly below 1 µg/mL. Is it met by NCC1CN(c2ccc(-c3ccc4c(c3)OC[C@H]3[C@H](CO)OC(=O)N43)cn2)C(=O)O1 (some centres undefined) ?
yes (1)

Does this molecule meet the criterion MIC < 1 µg/mL? "CN1CCN(c2ccc(-c3ccc4c(c3)OC[C@H]3[C@H](CO)OC(=O)N43)cn2)C1=O"
no (0)

* * *

// reported MIC per item
- Tested on: Staphylococcus aureus
- Protocol: Antibacterial activity against methicillin-sensitive Staphylococcus aureus after 16 hrs by NCCLS agar dilution method
- Assay type: functional
Could you give me the number in µg/mL? Just the number is fine.

Look over these answered cases.
CC(C)N1CCN(c2ccc(-c3ccc4c(c3)OC[C@H]3[C@H](CO)OC(=O)N43)cn2)C1=O: 4
O=C1O[C@@H](CO)CN1c1ccc(-c2ccc3c(c2)OC[C@H]2[C@H](CO)OC(=O)N32)cn1: 0.5
O=C1COCCN1c1ccc(-c2ccc3c(c2)OC[C@H]2[C@H](CO)OC(=O)N32)cn1: 2
N#Cc1ccc(-c2ccc3c(c2)OC[C@H]2[C@H](CO)OC(=O)N32)cn1: 0.25

GET /values?readout=MIC&item= "CCN1CCN(c2ccc(-c3ccc4c(c3)OC[C@H]3[C@H](CO)OC(=O)N43)cn2)CC1"
4

* * *

- Test system: Staphylococcus epidermidis
- Protocol: Antibacterial activity against methicillin-sensitive Staphylococcus epidermidis after 16 hrs by NCCLS agar dilution method
- Assay type: functional
Endpoint Label: MIC

O=C1O[C@@H](CO)[C@@H]2COc3cc(-c4ccc(CO)nc4)ccc3N12: 0.5 µg/mL
Cc1cc(C#N)ncc1-c1ccc2c(c1)OC[C@H]1[C@H](CO)OC(=O)N21: 0.25 µg/mL
Cn1nnc(-c2ccc(-c3ccc4c(c3)OC[C@H]3[C@H](CO)OC(=O)N43)cn2)n1: 1 µg/mL
CC(C)N1CC(c2ccc(-c3ccc4c(c3)OC[C@H]3[C@H](CO)OC(=O)N43)cn2)OC1=O (some centres not stated): 1 µg/mL
CN1C[C@@H](c2ccc(-c3ccc4c(c3)OC[C@H]3[C@H](CO)OC(=O)N43)cn2)OC1=O: 0.25 µg/mL

# get_value(readout='MIC', item= "O=C1O[C@@H](CO)CN1c1ccc(-c2ccc3c(c2)OC[C@H]2[C@H](CO)OC(=O)N32)cn1" )
0.5 µg/mL

Tell me the measured MIC of "O=C1O[C@@H](CO)[C@@H]2COc3cc(-c4ccc(Cn5cncn5)nc4)ccc3N12" , please.
0.5 µg/mL

* * *

- System: Staphylococcus aureus
- Protocol: Antibacterial activity against methicillin-resistant Staphylococcus aureus after 16 hrs by NCCLS agar dilution method
- Assay type: functional
Listed here: items and their measured MIC.
Kindly provide the numeric value in µg/mL only, without the unit symbol.

Which measured MIC value corresponds to "CN1CCC[C@H]2CN(c3ccc(-c4ccc5c(c4)OC[C@H]4[C@H](CO)OC(=O)N54)cn3)C[C@H]21" ?
8

I have this molecule here, "Cc1cc(C#N)ncc1-c1ccc2c(c1)OC[C@H]1[C@H](CO)OC(=O)N21" , and I need its recorded MIC.
0.25

* * *

- Protocol: Elimination half life in Sprague-Dawley rat at 10 mg/kg, iv by LC-MS analysis
- Format: ADME, organism-based
- Design: dose 10 mg/kg, route intravenous
- Run Parameters: in vivo, read-out: beta t1/2 (converted)
Parameter half-life: see the listing below.
Reply with just the number (in min).

CN1C[C@@H](c2ccc(-c3ccc4c(c3)OC[C@H]3[C@H](COP(=O)([O-])[O-])OC(=O)N43)cn2)OC1=O.[Na+].[Na+]: 293

Entry O=C1OC(COP(=O)([O-])[O-])CN1c1ccc(-c2ccc3c(c2)OC[C@H]2[C@H](CO)OC(=O)N32)cn1.[Na+].[Na+] (some centres undefined) has what half-life?
60

Could you share which half-life value was measured for N=C(N)NCCC[C@H](N)C(=O)O.N=C(N)NCCC[C@H](N)C(=O)O.O=C1OC(COP(=O)(O)O)CN1c1ccc(-c2ccc3c(c2)OC[C@H]2[C@H](CO)OC(=O)N32)cn1 (some centres undefined) ?
15.6

Any idea what half-life was measured for "CN1C[C@@H](c2ccc(-c3ccc4c(c3)OC[C@H]3[C@H](COP(=O)(O)O)OC(=O)N43)cn2)OC1=O.N=C(N)NCCC[C@H](N)C(=O)O.N=C(N)NCCC[C@H](N)C(=O)O" ?
566

* * *

- Protocol: Mean resident time in Staphylococcus aureus systemic infection mouse model at 2.5 to 20 mg/kg, iv
- Format: ADME, organism-based
- Design: dose 2.5-20 mg/kg, route intravenous
- Run Parameters: in vivo
Endpoint Label: MRT

Please look up its MRT: "CN1C[C@@H](c2ccc(-c3ccc4c(c3)OC[C@H]3[C@H](COP(=O)([O-])[O-])OC(=O)N43)cn2)OC1=O.[Na+].[Na+]"
1.25 h

* * *

- System: Staphylococcus aureus
- Protocol: Antibacterial activity against methicillin-sensitive Staphylococcus aureus after 16 hrs by NCCLS agar dilution method
- Type: functional
Endpoint Label: MIC

Worked cases, answers included:
Cc1cc(N2CCOC2=O)ncc1-c1ccc2c(c1)OC[C@H]1[C@H](CO)OC(=O)N21: 0.5 µg/mL
CN1CCN(c2ccc(-c3ccc4c(c3)OC[C@H]3[C@H](CO)OC(=O)N43)cn2)C1=O: 2 µg/mL
NCC1CN(c2ccc(-c3ccc4c(c3)OC[C@H]3[C@H](CO)OC(=O)N43)cn2)C(=O)O1 (stereo partly drawn): 1 µg/mL
CN1CCC[C@H]2CN(c3ccc(-c4ccc5c(c4)OC[C@H]4[C@H](CO)OC(=O)N54)cn3)C[C@H]21: 8 µg/mL
O=C1O[C@H](CO)CN1c1ccc(-c2ccc3c(c2)OC[C@H]2[C@H](CO)OC(=O)N32)cn1: 0.5 µg/mL

Endpoint output: MIC of "O=C1OCCN1c1ccc(-c2ccc3c(c2)OC[C@H]2[C@H](CO)OC(=O)N32)cn1" . Value?
0.5 µg/mL

# get_value(readout='MIC', item= "Cn1nnc(-c2ccc(-c3ccc4c(c3)OC[C@H]3[C@H](CO)OC(=O)N43)cn2)n1" )
1 µg/mL

If you can, please state the reported MIC value of "CC(C)(O)c1ccc(-c2ccc3c(c2)OC[C@H]2[C@H](CO)OC(=O)N32)cn1" .
1 µg/mL
